ASSAY_SYSTEM: Androgen Receptor (Homo sapiens, UniProt P10275)
Construct: endogenous in cells; host or cells: VCaP cells
Sequence (P10275 whole entry): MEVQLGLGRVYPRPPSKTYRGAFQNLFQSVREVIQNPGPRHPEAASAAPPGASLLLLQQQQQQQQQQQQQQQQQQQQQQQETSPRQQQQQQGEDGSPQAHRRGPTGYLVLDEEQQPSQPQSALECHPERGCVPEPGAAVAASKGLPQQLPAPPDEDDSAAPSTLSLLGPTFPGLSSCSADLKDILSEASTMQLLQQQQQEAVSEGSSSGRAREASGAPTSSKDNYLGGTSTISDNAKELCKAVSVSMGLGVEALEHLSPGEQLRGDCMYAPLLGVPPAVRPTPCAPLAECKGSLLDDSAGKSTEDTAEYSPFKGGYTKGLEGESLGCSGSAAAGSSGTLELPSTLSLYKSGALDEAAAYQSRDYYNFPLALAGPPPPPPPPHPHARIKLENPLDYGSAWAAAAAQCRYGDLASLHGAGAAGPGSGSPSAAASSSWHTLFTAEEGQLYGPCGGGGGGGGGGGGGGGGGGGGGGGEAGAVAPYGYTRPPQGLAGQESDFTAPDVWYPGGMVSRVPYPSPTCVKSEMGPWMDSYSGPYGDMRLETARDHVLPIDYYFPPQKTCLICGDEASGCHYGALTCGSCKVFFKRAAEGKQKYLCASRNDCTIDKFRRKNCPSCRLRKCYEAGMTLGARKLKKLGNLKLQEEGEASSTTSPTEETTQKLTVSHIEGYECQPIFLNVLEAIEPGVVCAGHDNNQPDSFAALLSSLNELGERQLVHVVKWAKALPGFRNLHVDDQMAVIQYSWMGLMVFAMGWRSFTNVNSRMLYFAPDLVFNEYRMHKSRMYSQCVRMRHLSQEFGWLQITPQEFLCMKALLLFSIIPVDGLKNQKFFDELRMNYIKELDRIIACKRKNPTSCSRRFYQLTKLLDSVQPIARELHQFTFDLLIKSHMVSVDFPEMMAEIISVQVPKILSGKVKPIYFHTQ
PROTOCOL_DETAILS: Androgen Receptor ELISA assay (PathScan AR ELISA) in VCaP cells: AR degradation, Dmax and DC50
Assay type: cell-based
CONDITION: VCaP cells; Table 35; read-out: VCaP DC50
Below: a set of entries, each annotated with reported DC50.
PARAMETER: DC50

[[record]]
molecule = "Cc1ncsc1-c1ccc([C@H](C)NC(=O)[C@H]2C[C@@H](O)CN2C(=O)[C@@H](NC(=O)COCCCCCNc2ccc(C(=O)N[C@H]3C(C)(C)[C@H](Oc4ccc(C#N)c(Cl)c4)C3(C)C)cc2)C(C)(C)C)cc1 [Example 458]"
result = "> 501 nM"

[[record]]
molecule = "COc1cc(C#N)ccc1CNC(=O)[C@@H]1C[C@@H](O)CN1C(=O)[C@@H](NC(=O)COCCCCCNc1ccc(C(=O)N[C@H]2C(C)(C)[C@H](Oc3ccc(C#N)c(Cl)c3)C2(C)C)cc1)C(C)(C)C [Example 510]"
result = "< 50 nM"

